Please respond with reported inhibition for every item in the list.
# Target Desc: CDK2/Cyclin A2 (Homo sapiens) (UniProt P24941+P20248)
# Experiment Notes: Inhibition of CDK2/cyclin A (unknown origin) at 0.5 uM using histone H1 as substrate after 30 mins in presence of [33P]-gamma-ATP by filter binding assay relative to control
# Assay type: protein-complex assay
Answers are plain numbers, in %.

Reference set (4 entries):
- Molecule: "Cc1oc2c([C@H]3CCN(C)C[C@H]3O)c(O)cc(O)c2c(=O)c1C(O)c1c(Cl)cccc1Cl (some centres undefined)"
  Reported Value: 0
- Molecule: "CN1CC[C@H](c2c(O)cc(O)c3c(=O)cc(/C=C/c4c(Cl)cccc4Cl)oc23)[C@H](O)C1"
  Reported Value: 90
- Molecule: "Cc1oc2c([C@H]3CCN(C)C[C@H]3O)c(O)cc(O)c2c(=O)c1C(O)c1ccc([N+](=O)[O-])cc1 (some centres undefined)"
  Reported Value: 6
- Molecule: "CN1CC[C@H](c2c(O)cc(O)c3c(=O)cc(/C=C/c4c5ccccc5cc5ccccc45)oc23)[C@H](O)C1"
  Reported Value: 43

I have 8 molecules here; please give me inhibition for each one.
1. Cc1cc(=O)c2c(O)c(CN3CCN(C(=O)OC(C)(C)C)CC3)c(O)c([C@H]3CCN(C)C[C@H]3O)c2o1
2. Cc1cc(=O)c2c(O)c(CN3CCCC3C(=O)O)c(O)c([C@H]3CCN(C)C[C@H]3O)c2o1 (some centres undefined)
3. Cc1cc(=O)c2c(O)c(CN3CCOCC3)c(O)c([C@H]3CCN(C)C[C@H]3O)c2o1
4. COc1ccc(COc2cc(O)c3c(=O)cc(C)oc3c2[C@H]2CCN(C)C[C@H]2O)cc1
5. Cc1oc2c([C@H]3CCN(C)C[C@H]3O)c(O)cc(O)c2c(=O)c1C(O)c1ccccc1Br (some centres undefined)
6. Cc1cc(=O)c2c(O)cc(O)c([C@H]3CCN(C)C[C@H]3OC(=O)c3ccco3)c2o1
7. CN1CC[C@H](c2c(O)cc(O)c3c(=O)cc(/C=C/c4ccc(Cl)cc4)oc23)[C@H](O)C1
8. Cc1oc2c([C@H]3CCN(C)C[C@H]3O)c(O)cc(O)c2c(=O)c1C(O)c1cccc(Cl)c1 (some centres undefined)

[2, 17, 0, 10, 0, 10, 2, 0]

Parameters: items (list). Returns: inhibition for each item.
1. Cc1oc2c([C@H]3CCN(C)C[C@H]3O)c(O)cc(O)c2c(=O)c1C(O)c1ccc(F)c(Br)c1 (some centres undefined)
2. Cc1cc(=O)c2c(O)c(CN3CCCC3)c(O)c([C@H]3CCN(C)C[C@H]3O)c2o1
3. CN1CC[C@H](c2c(O)cc(O)c3c(=O)cc(/C=C/c4ccccc4F)oc23)[C@H](O)C1
4. CN1CC[C@H](c2c(O)cc(O)c3c(=O)cc(/C=C/c4ccccc4)oc23)[C@H](O)C1
5. Cc1cc(=O)c2c(O)c(CN3CCC(N4CCCCC4)CC3)c(O)c([C@H]3CCN(C)C[C@H]3O)c2o1
6. Cc1cc(=O)c2c(O)cc(OCc3ccc([N+](=O)[O-])cc3)c([C@H]3CCN(C)C[C@H]3O)c2o1
7. Cc1oc2c([C@H]3CCN(C)C[C@H]3O)c(O)cc(O)c2c(=O)c1C(O)c1cc(F)cc(F)c1 (some centres undefined)
8. Cc1cc(=O)c2c(O)cc(OCc3ccccc3Br)c([C@H]3CCN(C)C[C@H]3O)c2o1

2
7
9
5.2
10
0
2
6

// for each molecule below, give its inhibition
1. Cc1cc(=O)c2c(O)cc(OCc3ccc(Br)cc3)c([C@H]3CCN(C)C[C@H]3O)c2o1
2. Cc1oc2c([C@H]3CCN(C)C[C@H]3O)c(O)cc(O)c2c(=O)c1C(O)c1ccc(Cl)cc1 (some centres undefined)
3. Cc1oc2c([C@H]3CCN(C)C[C@H]3O)c(O)cc(O)c2c(=O)c1C(O)c1ccc(F)cc1 (some centres undefined)
4. Cc1cc(=O)c2c(O)c(CN3CCC(Cc4ccccc4)CC3)c(O)c([C@H]3CCN(C)C[C@H]3O)c2o1
5. Cc1oc2c([C@H]3CCN(C)C[C@H]3O)c(O)cc(O)c2c(=O)c1C(O)c1cccc(Cl)c1Cl (some centres undefined)
6. Cc1oc2c([C@H]3CCN(C)C[C@H]3O)c(O)cc(O)c2c(=O)c1C(O)c1csc([N+](=O)[O-])c1 (some centres undefined)
7. Cc1cc(=O)c2c(O)cc(OC/C=C/c3ccccc3)c([C@H]3CCN(C)C[C@H]3O)c2o1

[0, 0, 13, 4, 0, 7, 7]

Below is a list of molecules. For each, state its recorded inhibition.
1. Cc1oc2c([C@H]3CCN(C)C[C@H]3O)c(O)cc(O)c2c(=O)c1C(O)c1c(F)cccc1Cl (some centres undefined)
2. Cc1cc(=O)c2c(O)c(CN3CCN(C)CC3)c(O)c([C@H]3CCN(C)C[C@H]3O)c2o1
3. Cc1cc(=O)c2c(O)cc(OCc3ccccc3)c([C@H]3CCN(C)C[C@H]3O)c2o1
4. CN1CC[C@H](c2c(O)cc(O)c3c(=O)cc(/C=C/c4ccccc4Cl)oc23)[C@H](O)C1
5. CN1CC[C@H](c2c(O)cc(O)c3c(=O)cc(/C=C/c4cccc(Cl)c4)oc23)[C@H](O)C1
6. COc1ccc(C(O)c2c(C)oc3c([C@H]4CCN(C)C[C@H]4O)c(O)cc(O)c3c2=O)cc1Br (some centres undefined)

1: 0; 2: 0; 3: 10; 4: 10; 5: 5; 6: 3

The reported inhibition of the molecule CCCCCCCCCC/C=C/c1c(C)oc2c([C@H]3CCN(C)C[C@H]3O)c(O)cc(O)c2c1=O was 5

###

# Target Desc: CDK6/cyclin D3 (Homo sapiens)
# Sequence (P30281 whole entry): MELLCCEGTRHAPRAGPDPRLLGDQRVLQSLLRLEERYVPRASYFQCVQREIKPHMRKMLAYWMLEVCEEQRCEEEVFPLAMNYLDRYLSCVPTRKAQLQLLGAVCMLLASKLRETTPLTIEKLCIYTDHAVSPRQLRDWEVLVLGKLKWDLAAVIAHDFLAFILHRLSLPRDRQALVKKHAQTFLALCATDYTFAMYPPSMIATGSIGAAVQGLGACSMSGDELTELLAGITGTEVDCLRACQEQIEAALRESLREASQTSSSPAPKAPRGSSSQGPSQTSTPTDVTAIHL
# Sequence (Q00534 whole entry): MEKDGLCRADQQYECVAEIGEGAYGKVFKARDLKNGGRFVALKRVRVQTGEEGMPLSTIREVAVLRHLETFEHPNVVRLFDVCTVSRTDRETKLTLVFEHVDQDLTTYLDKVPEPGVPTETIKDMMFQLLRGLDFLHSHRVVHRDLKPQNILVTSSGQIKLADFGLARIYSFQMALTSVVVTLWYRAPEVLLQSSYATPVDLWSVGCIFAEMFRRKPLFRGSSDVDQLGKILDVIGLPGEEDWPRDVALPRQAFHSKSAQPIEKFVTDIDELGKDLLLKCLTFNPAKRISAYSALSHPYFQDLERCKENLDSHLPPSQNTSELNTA
# Experiment Notes: Inhibition of CDK6/cyclin D3 (unknown origin) after 30 mins in presence of [33P]-gamma-ATP by filter binding assay
Metric Name: IC50 (nM)
One number for each entry, in nM.

Entry CN1CC[C@H](c2c(O)cc(O)c3c(=O)cc(/C=C/c4c(Cl)cccc4Cl)oc23)[C@H](O)C1 ; IC50 = 199

###

# Tested on: MCF7
# Experiment Notes: Growth inhibition of human MCF7 cells at 10 uM after 48 hrs by MTT assay relative to control
# Type: functional
# Test Context: MCF7, 48 h, read-out: GI
Parameter threshold = 20%. Response is condition met when inhibition of growth at 10 µM meets or exceeds it, else condition not met.

These solved cases illustrate the format of a correct answer.
- Compound: "Cc1cc(=O)c2c(O)cc(OCc3ccccc3)c([C@H]3CCN(C)C[C@H]3O)c2o1"
  Target Desc: "MCF7"
  Class Name: "condition not met"
- Compound: "Cc1cc(=O)c2c(O)c(CN(C)CC(=O)O)c(O)c([C@H]3CCN(C)C[C@H]3O)c2o1"
  Target Desc: "MCF7"
  Class Name: "condition met"
- Compound: "Cc1oc2c([C@H]3CCN(C)C[C@H]3O)c(O)cc(O)c2c(=O)c1C(O)c1ccc(F)c(Br)c1 (stereo partly drawn)"
  Target Desc: "MCF7"
  Class Name: "condition not met"
- Compound: "Cc1cc(=O)c2c(O)c(CN3CCC(N4CCCCC4)CC3)c(O)c([C@H]3CCN(C)C[C@H]3O)c2o1"
  Target Desc: "MCF7"
  Class Name: "condition met"
- Compound: "Cc1cc(=O)c2c(O)c(CN3CCOCC3)c(O)c([C@H]3CCN(C)C[C@H]3O)c2o1"
  Target Desc: "MCF7"
  Class Name: "condition met"

Quick check, inhibition of growth at 10 µM >= 20%? Cc1cc(=O)c2c(O)c(CN(C(C)C)C(C)C)c(O)c([C@H]3CCN(C)C[C@H]3O)c2o1
condition met

Is inhibition of growth at 10 µM at least 20%? Consider Cc1oc2c([C@H]3CCN(C)C[C@H]3O)c(O)cc(O)c2c(=O)c1C(O)c1cccc(Cl)c1Cl (stereo partly drawn)
condition not met

Evaluate CCN(CC)Cc1c(O)c([C@H]2CCN(C)C[C@H]2O)c2oc(C)cc(=O)c2c1O : inhibition of growth at 10 µM at minimum 20%?
condition met

###

# Experiment Notes: Metabolic stability in mouse plasma assessed as parent compound remaining after 8 hrs by HPLC method
# Assay type: ADME, cell-free
# Test Context: read-out: Stability
Metric Name: remaining at 8 h (%)
One number for each entry, in %.

The compound identified as CN1CC[C@H](c2c(O)cc(O)c3c(=O)cc(/C=C/c4c(Cl)cccc4Cl)oc23)[C@H](O)C1 registered its remaining at 8 h at 94

###

# Experiment Notes: Thermodynamic equilibrium solubility of compound in SIF at pH 6.8 after 5 hrs by shake flask method
# Format: physicochemical
# Test Context: read-out: Therm_solubility
Metric Name: solubility thermodynamic at 5 h (µg/mL)
Numbers only, in µg/mL.

solubility thermodynamic at 5 h in this record for CN1CC[C@H](c2c(O)cc(O)c3c(=O)cc(/C=C/c4c(Cl)cccc4Cl)oc23)[C@H](O)C1 : 2.18
